- ASSAY DETAILS: resazurin metabolic signal in A549 cells – cell-based, resazurin fluorescence, 24 h, PK04 Diversity Set, profiling panel (AID 1171); also: test concentration not given here
- CONDITION SUMMARY: A549 viability, higher = more signal, called active from +8 up or from −8 down
Activity calls are given as the source filed them.
I'd appreciate it if you could supply z-score values for the items below.

Reference set (5 entries):
>>> df
                                   molecule  readout_type     value_measured
0  O=C1OCCC=C[C@H]2OC34C=CCN(CCN5CCOCC5)C(=O)[C@H]3N(CCO)C(=O)[C@@H]4C12 (stereo partly drawn)       z-score  -0.948 (inactive)
1  C=C(C(=O)CC[C@@H](OC(C)=O)c1ccc(OCCO)cc1)C(C)C       z-score  -0.222 (inactive)
2  CCOC(=O)N1C(c2ccc(OCCCO)cc2)=NC(C(=O)OC)N1C(=O)OCC (stereo not drawn)       z-score   0.352 (inactive)
3  C=CCCN(CC#C[C@H]1Oc2ccccc2S(=O)(=O)N2CCC[C@@H]12)S(=O)(=O)c1ccc(C)cc1       z-score   0.967 (inactive)
4  COC(=O)[C@@]1(Cc2ccc(F)cc2)[C@H]2c3cc(C(=O)N(C)C)n(CCCNc4ccc(C(F)(F)F)cc4Cl)c3C[C@H]2CN1C(=O)c1ccccc1       z-score   -1.85 (inactive)

Quick request: z-score for each listed item, please.
1. C=C[C@H](OC)[C@@H](OC(=O)Nc1ccc(SC)cc1)c1ccc(OCCO)cc1
2. Cc1ccc(S[C@]2(C(=O)NCCCN(C)C)CC(=O)N(C(C)C)[C@@H]2c2ccc(CO)cc2I)cc1
3. [N-]=[N+]=NCc1ccccc1C[C@]1(C(N)=O)N=C(c2ccc(OCCCO)cc2)O[C@H]1c1ccccc1N=[N+]=[N-]

1. -0.139 (inactive)
2. 0.505 (inactive)
3. -0.38 (inactive)
